# System: Rattus norvegicus
# test.description: Ulcerogenic activity in Wistar rat assessed as appearance of ulcers and erosions in stomach by measuring ulcer index at 100 mg/kg, po measured after 4 hrs
# Assay type: toxicity, organism-based
# condition.description: in vivo
measured.property: UI
Give the value as a plain number.

Example entries begin here.
1. S=C1NN2C(c3ccccc3)=CC(c3ccc(Cl)cc3)N=C2S1 (stereo not given) | 0.6
2. COc1ccc(C2C=C(c3ccccc3)N3NC(=S)SC3=N2)cc1 (stereo not given) | 0.64
3. O=S(=O)(Nc1nccs1)c1ccc(NCNc2n[nH]c(=S)s2)cc1 | 0
4. COc1ccc(C2SCC(=O)N2c2n[nH]c(=S)s2)cc1 (stereo not given) | 0.26
5. CN(C)c1ccc(C2C(C#N)=C(N)N=C3SC(=S)NN32)cc1 (stereo not given) | 0

Write UI of Cc1ccc(-c2cc(C(F)(F)F)nn2-c2ccc(S(N)(=O)=O)cc2)cc1 ; system used: Rattus norvegicus 0

Write UI of Cc1ccnc(NS(=O)(=O)c2ccc(NCNc3n[nH]c(=S)s3)cc2)n1 ; system used: Rattus norvegicus 0.05

Write UI of O=C1CSC2SC(/N=C/c3ccc(Br)cc3)=NN12 (stereo not given) ; system used: Rattus norvegicus 0

* * *

A collection of compounds and their measured IC50
# measured.on: Prostaglandin G/H synthase 1 (Ovis aries)
# Sequence (P05979 whole entry): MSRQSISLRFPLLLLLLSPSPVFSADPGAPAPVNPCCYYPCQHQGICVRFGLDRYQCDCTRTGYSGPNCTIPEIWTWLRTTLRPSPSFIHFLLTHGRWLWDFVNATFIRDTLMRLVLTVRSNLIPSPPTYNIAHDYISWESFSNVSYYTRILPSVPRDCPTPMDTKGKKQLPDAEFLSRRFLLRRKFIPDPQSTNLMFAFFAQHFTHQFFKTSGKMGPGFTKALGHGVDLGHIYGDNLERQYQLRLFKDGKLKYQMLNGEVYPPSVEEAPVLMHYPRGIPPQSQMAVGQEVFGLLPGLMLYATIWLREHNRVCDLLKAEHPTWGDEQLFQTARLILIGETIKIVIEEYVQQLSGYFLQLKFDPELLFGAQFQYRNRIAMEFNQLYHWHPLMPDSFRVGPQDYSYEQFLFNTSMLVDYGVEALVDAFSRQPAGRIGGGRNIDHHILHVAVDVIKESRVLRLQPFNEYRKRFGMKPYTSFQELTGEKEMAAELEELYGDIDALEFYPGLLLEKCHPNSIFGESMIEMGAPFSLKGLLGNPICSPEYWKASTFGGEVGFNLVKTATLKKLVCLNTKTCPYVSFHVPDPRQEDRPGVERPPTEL

1) O=C1CSC(c2ccc(Cl)cc2)N1c1n[nH]c(=S)s1 (stereo unspecified) | > 50 µM
2) O=S(=O)(Nc1ccccn1)c1ccc(NCNc2n[nH]c(=S)s2)cc1 | > 50 µM
3) NS(=O)(=O)c1ccc(NCNc2n[nH]c(=S)s2)cc1 | > 50 µM
4) COc1ccc(/C=N/C2=NN3C(=O)CSC3S2)cc1 (stereo unspecified) | > 50 µM

Write IC50 of COc1ccc(/C=N/c2n[nH]c(=S)s2)cc1 ; system used: Prostaglandin G/H synthase 1 (Ovis aries) 41.7 µM

Write IC50 of CN(C)c1ccc(C2C(C#N)=C(N)N=C3SC(=S)NN32)cc1 (stereo unspecified) ; system used: Prostaglandin G/H synthase 1 (Ovis aries) > 50 µM

Write IC50 of Cc1cc(C)nc(NS(=O)(=O)c2ccc(NCNc3n[nH]c(=S)s3)cc2)n1 ; system used: Prostaglandin G/H synthase 1 (Ovis aries) > 50 µM

* * *

A collection of molecules and their measured LD50 at 24 h
# test.description: Acute toxicity in Swiss albino mouse assessed as mortality administered ip measured for 24 hrs
# Format: organism-based
# condition.description: in vivo, read-out: ALD50

Example entries begin here.
1) O=S(=O)(Nc1nccs1)c1ccc(NCNc2n[nH]c(=S)s2)cc1 | > 1000 mg/kg
2) COc1ccc(/C=N/C2=NN3C(=O)CSC3S2)cc1 (stereo unspecified) | > 800 mg/kg
3) N=c1cc(Nc2ccc(S(=O)(=O)Nc3nccs3)cc2)n2[nH]c(=S)sc2n1 | > 1000 mg/kg
4) Cc1ccnc(NS(=O)(=O)c2ccc(NCNc3n[nH]c(=S)s3)cc2)n1 | > 800 mg/kg
5) O=C1CSC(c2ccc(Br)cc2)N1c1n[nH]c(=S)s1 (stereo unspecified) | > 1000 mg/kg

Field: next molecule
Specify reported LD50 at 24 h for the molecule shown: N=c1cc(Nc2ccc(S(=O)(=O)Nc3ccccn3)cc2)n2[nH]c(=S)sc2n1 > 800 mg/kg
